# Tested on: HS 578T breast
# test.summary: NCI-60 one-dose screen, 48 h
# condition.set: 10 µM unless noted
Compounds without any hit were thinned out: in the full panel of roughly 83,000, 20% have a hit. Activity calls are given as the source filed them. Rule for the calls: active = growth percent below 10; inactive = the rest.
Outcome codes: T = active, F = inactive

[
  {
    "chemical.string": "C#CCNC(=O)CC[C@]1(C)[C@H]2CC[C@@H]3[C@@H]([C@@](C)(O)CCC=C(C)C)CC[C@@]3(C)[C@]2(C)CC[C@H]1C(=C)C",
    "group": "F"
  },
  {
    "chemical.string": "Oc1c(CNCCNCc2cc(Cl)cc(Cc3ccccc3)c2O)cc(Cl)cc1Cc1ccccc1",
    "group": "F"
  },
  {
    "chemical.string": "O=C1C(Cl)=C(Nc2ccc3cn[nH]c3c2)C(=O)c2ccccc21",
    "group": "T"
  },
  {
    "chemical.string": "CC(C)=CCC[C@](C)(O)[C@H]1CC[C@]2(C)[C@@H]1CC[C@@H]1[C@@]3(C)CC/C(=N/O)C(C)(C)[C@@H]3CC[C@]12C",
    "group": "T"
  },
  {
    "chemical.string": "O=C(CCNCc1ccccc1)c1ccccc1",
    "group": "F"
  },
  {
    "chemical.string": "O=C(N/N=C/c1c(Cl)cccc1Cl)c1cccc(Nc2ccnc(C(F)(F)F)c2)c1",
    "group": "F"
  }
]

###

# System: PC-3 prostate
# test.summary: NCI-60 one-dose screen, 48 h
# condition.set: 10 µM unless noted
About 83,000 compounds went through this panel and 20% of them were active in at least one assay; those are over-represented in the sample as a whole. Activity calls are given as the source filed them. Rule for the calls: active = growth percent below 10; inactive = the rest.
Outcome codes: active, inactive

[
  {
    "chemical.string": "COC(=O)[C@]12CCC(C)(C)C[C@H]1C1=CC[C@@H]3[C@@]4(C)C/C(=C/c5cccnc5)C(=O)C(C)(C)[C@@H]4CC[C@@]3(C)[C@]1(C)CC2",
    "group": "active"
  },
  {
    "chemical.string": "Cc1cccc(C[C@H](NC(=O)Nc2ccc(Cl)cc2F)C(=O)N[C@@H]2C(=O)N3C[C@H](O)C[C@H]3C(=O)N3CCCC[C@H]3C(=O)N[C@@H](C)C(=O)N3C[C@H](C)C[C@H]3C(=O)O[C@H]2C)c1",
    "group": "active"
  },
  {
    "chemical.string": "Cc1cc(C)c(-c2cc(O)c(-c3c(C)cc(C)cc3C)cc2O)c(C)c1",
    "group": "inactive"
  }
]

###

# Tested on: NCI-H226 lung
# test.summary: NCI-60 one-dose screen, 48 h
# condition.set: 10 µM unless noted
About 83,000 compounds went through this panel and 20% of them were active in at least one assay; those are over-represented in the sample as a whole. Active and inactive are the calls of the source. Rule for the calls: active = growth percent below 10; inactive = the rest.
Classes used: active, inactive

[
  {
    "compound": "CC1(C(=O)O)CCC(N)(C(=O)O)C1(C)C (stereo not given)",
    "group": "inactive"
  },
  {
    "compound": "Cc1cccc(C[C@H](NC(=O)Nc2ccc(Cl)cc2F)C(=O)N[C@@H]2C(=O)N3C[C@H](OC(=O)CCN(C)C)C[C@H]3C(=O)N3CCCC[C@H]3C(=O)N[C@@H](C)C(=O)N3C[C@H](C)C[C@H]3C(=O)O[C@H]2C)c1",
    "group": "inactive"
  },
  {
    "compound": "O=C1CC(C(F)(F)F)Cc2nc3ccc(Br)cc3cc21 (stereo not given)",
    "group": "inactive"
  },
  {
    "compound": "Nc1ccc(NC(=O)c2ccccc2)c2c1C(=O)c1ccccc1C2=O",
    "group": "inactive"
  },
  {
    "compound": "CCN(CC)c1ccc2cc(C(Nc3ccc(Cl)cc3)c3nnnn3C(C)(C)C)c(=O)oc2c1 (stereo not given)",
    "group": "inactive"
  },
  {
    "compound": "CC1(C)CC[C@]2(C(N)=O)CC[C@]3(C)C(=CC[C@@H]4[C@@]5(C)C/C(=C/c6ccncc6)C(=O)C(C)(C)[C@@H]5CC[C@]43C)[C@@H]2C1",
    "group": "active"
  },
  {
    "compound": "O=c1[nH]cnc2c1ccn2C1OC(CO)C(O)C1O (stereo not given)",
    "group": "inactive"
  },
  {
    "compound": "COc1cc2c(=O)[nH]c3cc([N+](=O)[O-])ccc3c2cc1[N+](=O)[O-]",
    "group": "inactive"
  },
  {
    "compound": "C=C(C)[C@@H]1CC[C@]2(C)[C@H](CC[C@@H]3[C@@H]([C@@](C)(O)CCC=C(C)C)CC[C@]32C)[C@@]1(C)CCC(=O)O",
    "group": "active"
  },
  {
    "compound": "COc1ccc(/C=C/C=C\\C(=O)c2ccc(-n3ccnc3)cc2)cc1",
    "group": "inactive"
  }
]
